test system: MOLT-4 leukemia; test: NCI-60 one-dose screen, 48 h; conditions: 10 µM unless noted
About 83,000 compounds went through this panel and 20% of them were active in at least one assay; those are over-represented in the sample as a whole. Calls of active or inactive are those of the source. The calls were made as follows: active = growth percent below 10; inactive = the rest.
Labels: yes for active, no for inactive

INSERT INTO measurements (compound, class_label) VALUES
  ('COc1nc2c(cc1S(=O)(=O)c1ccccc1)CCc1c-2cnn1Cc1ccccc1', 'no'),
  ('COc1ccc(OCC(=O)Nc2ccc(-c3nc4ccccc4s3)cc2C)cc1', 'no'),
  ('COc1ccc(C2CC(=O)Nc3c2c(C)nn3-c2nc3ccccc3[nH]2)cc1 (configuration not stated)', 'yes'),
  ('COc1ccc(-c2cc(/C=C3\C(=O)Nc4ccc(Cl)cc43)[nH]n2)cc1', 'no'),
  ('O=C(CN1CCN(c2cc3c(cc2F)c(=O)c(C(=O)O)cn3C2CC2)CC1)Nc1cc(=O)[nH]c(=O)[nH]1', 'no'),
  ('C/C(=C(/c1ccc(O)cc1)c1ccc(OCCN2CCCC2)cc1)c1ccccc1', 'yes'),
  ('O=C(/C=C\c1ccc2ccccc2n1)c1cc(Cl)ccc1O', 'no'),
  ('Oc1ccc2c(=S)cc(-c3ccc(Br)cc3)oc2c1O', 'yes'),
  ('COc1ccc(S(=O)(=O)NCCNc2nccc(-c3c(-c4cccc([N+](=O)[O-])c4)nc4sccn34)n2)cc1', 'no'),
  ('Fc1ccc(Cc2ccc(F)cc2)cc1', 'no'),
  ('COc1ccc(-c2cc(NC(=O)Nc3ccc(O)cc3)no2)cc1', 'no'),
  ('CN1CCN(Cc2ccc(NC(=O)c3[nH]ncc3Nc3ccnc4ccsc34)cc2)CC1', 'yes'),
  ('O=C1Nc2ccccc2/C1=C/C(=N/c1nnc(-c2ccccc2)s1)c1ccccc1', 'yes'),
  ('C/C(=C(/c1ccc(O)cc1)c1ccc(Cl)cc1)c1ccccc1', 'yes'),
  ('N#Cc1c(N)nc(N)nc1Nc1ccc(Br)cc1', 'no'),
  ('Cc1ccc(/C=C2\Oc3cc(OCC(=O)c4ccc(Cl)cc4)ccc3C2=O)cc1', 'no'),
  ('Cc1ccc2c(c1)C(=O)c1c-2c(OCCCN(C)C)nc2ccccc12', 'yes'),
  ('c1c2c(cc3c1OCO3)Cc1cc3c(cc1Cc1cc4c(cc1C2)OCO4)OCO3', 'no'),
  ('O=C(Cc1ccccc1)c1ccc(Cl)cc1', 'no'),
  ('Cc1ccc(Nc2nc(N)nc(Nc3ccc4ccccc4c3)n2)cc1', 'no'),
  ('CC1(C)CC(C(=O)OCCCCCCCCCCC[P+](c2ccccc2)(c2ccccc2)c2ccccc2)C(C)(C)N1O (configuration not stated)', 'yes'),
  ('CCOC(=O)c1c2ncccc2n2c(=O)n(-c3ccc(Cl)cc3)nnc12', 'no');

Entry source: PubChem BioAssay (NCI)
